assay: Selectivity index, ratio of CC50 for human HEp-2 cells to IC50 for Human respiratory syncytial virus infected in human HEp-2 cells; assay type: toxicity, cell-based; details: read-out: Ratio CC50/IC50
Attribute measured: selectivity ratio
Please reply with the number alone, leaving off any unit.

Task: Provide one value: measured selectivity ratio of COc1cc2c(cc1OC)[C@@H]1C(=O)c3ccc4c(c3O[C@@H]1CO2)C=CC(C)(C)O4 [DEGUELIN]
Output: 61.6
